Consider the following compounds and their measured dose excreted at 70 min readings.
# assay: Biliary excretion and bile flow after i.v. TFA-IOP (100 umol/kg) or IOP (100 in text, 104 umol/kg in tables) in rats
# experimental_context: rat, in vivo, iv, 100 umol/kg, Percentage of dose in bile sample, 60-70 min
Where a name gives a salt, the structure may show the parent alone.

compound: CCC(Cc1c(I)cc(I)c(N)c1I)C(=O)O (centres unmarked) [IOP, iopanoic acid, reference compound]
u: %
dose excreted at 70 min: 1.91
//
compound: CCC(Cc1c(I)cc(I)c(NC(=O)C(F)(F)F)c1I)C(=O)O (centres unmarked) [TFA-IOP, N-trifluoroacetyl-iopanoic acid]
u: %
dose excreted at 70 min: 3.36

* * *

Consider the following molecules and their measured dose excreted at 1 h readings.
# assay: Biliary excretion and bile flow after i.v. TFA-IOP (100 umol/kg) or IOP (100 in text, 104 umol/kg in tables) in rats
# experimental_context: rat, in vivo, iv, 100 umol/kg, Percentage of dose running total in bile, through 50-60 min
Where a name gives a salt, the structure may show the parent alone.
parameter: dose excreted at 1 h (%)

molecule: CCC(Cc1c(I)cc(I)c(N)c1I)C(=O)O (centres unmarked) [IOP, iopanoic acid, reference compound]
readout_value: 11.5

molecule: CCC(Cc1c(I)cc(I)c(NC(=O)C(F)(F)F)c1I)C(=O)O (centres unmarked) [TFA-IOP, N-trifluoroacetyl-iopanoic acid]
readout_value: 30.2

* * *

# assay: Biliary excretion and bile flow after i.v. TFA-IOP (100 umol/kg) or IOP (100 in text, 104 umol/kg in tables) in rats
# experimental_context: rat, bile, iv, 100 umol/kg
Structures can show the parent of a compound that is named as a salt.
parameter: concentration at 0 h (µM)

molecule: CCC(Cc1c(I)cc(I)c(NC(=O)C(F)(F)F)c1I)C(=O)O (stereo not shown) [TFA-IOP, N-trifluoroacetyl-iopanoic acid]
u: µM
readout_value: 635

* * *

Consider the following molecules and their measured dose excreted at 40 min readings.
# assay: Biliary excretion and bile flow after i.v. TFA-IOP (100 umol/kg) or IOP (100 in text, 104 umol/kg in tables) in rats
# experimental_context: rat, in vivo, iv, 100 umol/kg, Percentage of dose running total in bile, through 30-40 min
Where a name gives a salt, the structure may show the parent alone.

molecule: CCC(Cc1c(I)cc(I)c(N)c1I)C(=O)O (centres unmarked) [IOP, iopanoic acid, reference compound]
u: %
dose excreted at 40 min: 7.26
//
molecule: CCC(Cc1c(I)cc(I)c(NC(=O)C(F)(F)F)c1I)C(=O)O (centres unmarked) [TFA-IOP, N-trifluoroacetyl-iopanoic acid]
u: %
dose excreted at 40 min: 19.4

* * *

Consider the following compounds and their measured concentration at 85 min readings.
# assay: Biliary excretion and bile flow after i.v. TFA-IOP (100 umol/kg) or IOP (100 in text, 104 umol/kg in tables) in rats
# experimental_context: rat, bile, iv, 100 umol/kg
Counter-ions that a name gives are not always drawn.

compound: CCC(Cc1c(I)cc(I)c(N)c1I)C(=O)O (centres unmarked) [IOP, iopanoic acid, reference compound]
concentration at 85 min, µM: 9560
//
compound: CCC(Cc1c(I)cc(I)c(NC(=O)C(F)(F)F)c1I)C(=O)O (centres unmarked) [TFA-IOP, N-trifluoroacetyl-iopanoic acid]
concentration at 85 min, µM: 4660

* * *

Consider the following molecules and their measured concentration at 65 min readings.
# assay: Biliary excretion and bile flow after i.v. TFA-IOP (100 umol/kg) or IOP (100 in text, 104 umol/kg in tables) in rats
# experimental_context: rat, bile, iv, 100 umol/kg
# Description: Tissues examined included liver, spleen, upper GI, lower GI, kidney, lung and heart. The length of each study was 90 minutes, during which time bile, urine and plasma samples were taken to monitor uptake and excretion. NMR relaxation rates for liver and plasma were also examined to note whether uptake of either compound might possible alter these parameters.
Counter-ions that a name gives are not always drawn.
parameter: concentration at 65 min (µM)

molecule: CCC(Cc1c(I)cc(I)c(N)c1I)C(=O)O (centres unmarked) [IOP, iopanoic acid, reference compound]
parameter: concentration at 65 min
readout_value: 7530
--
molecule: CCC(Cc1c(I)cc(I)c(NC(=O)C(F)(F)F)c1I)C(=O)O (centres unmarked) [TFA-IOP, N-trifluoroacetyl-iopanoic acid]
parameter: concentration at 65 min
readout_value: 5370

* * *

# assay: Tissue distribution 90 min after i.v. TFA-IOP (100 umol/kg) or IOP (100 in text, 104 umol/kg in tables) in rats
# Assay type: in vivo
# experimental_context: rat, lower gi, iv, 100 umol/kg, i.v., 90 min, liver standard curve used, may be erroneous, read-out: Lower GI concentration
Where a name gives a salt, the structure may show the parent alone.
Consider the following molecules and their measured concentration at 1.5 h readings.

molecule: CCC(Cc1c(I)cc(I)c(N)c1I)C(=O)O (centres unmarked) [IOP, iopanoic acid, reference compound]
concentration at 1.5 h: 135 µM
//
molecule: CCC(Cc1c(I)cc(I)c(NC(=O)C(F)(F)F)c1I)C(=O)O (centres unmarked) [TFA-IOP, N-trifluoroacetyl-iopanoic acid]
concentration at 1.5 h: 178 µM

* * *

# assay: Plasma concentration after i.v. IOP or TFA-IOP in rats
# Assay type: in vivo
# experimental_context: plasma, iv, 100 umol/kg, rat, 60 min
Where a name gives a salt, the structure may show the parent alone.
Consider the following molecules and their measured concentration at 1 h readings.
parameter: concentration at 1 h (µM)

molecule: CCC(Cc1c(I)cc(I)c(N)c1I)C(=O)O (centres unmarked) [IOP, iopanoic acid, reference compound]
parameter: concentration at 1 h
u: µM
readout_value: 462
--
molecule: CCC(Cc1c(I)cc(I)c(NC(=O)C(F)(F)F)c1I)C(=O)O (centres unmarked) [TFA-IOP, N-trifluoroacetyl-iopanoic acid]
parameter: concentration at 1 h
u: µM
readout_value: 415

* * *

# assay: Biliary excretion and bile flow after i.v. TFA-IOP (100 umol/kg) or IOP (100 in text, 104 umol/kg in tables) in rats
# experimental_context: rat, in vivo, iv, 100 umol/kg, Percentage of dose in bile sample, period 10-0 min (pre-injection)
Structures can show the parent of a compound that is named as a salt.

compound: CCC(Cc1c(I)cc(I)c(NC(=O)C(F)(F)F)c1I)C(=O)O (stereo not shown) [TFA-IOP, N-trifluoroacetyl-iopanoic acid]
dose excreted at 0 h / %: 0.31

* * *

# assay: Tissue distribution 90 min after i.v. TFA-IOP (100 umol/kg) or IOP (100 in text, 104 umol/kg in tables) in rats
# Type: in vivo
# experimental_context: rat, upper gi, iv, 100 umol/kg, i.v., 90 min, liver standard curve used, may be erroneous, read-out: Upper GI concentration
Where a name gives a salt, the structure may show the parent alone.
parameter: concentration at 1.5 h (µM)

compound: CCC(Cc1c(I)cc(I)c(NC(=O)C(F)(F)F)c1I)C(=O)O (centres unmarked) [TFA-IOP, N-trifluoroacetyl-iopanoic acid]
readout_value: 140
--
compound: CCC(Cc1c(I)cc(I)c(N)c1I)C(=O)O (centres unmarked) [IOP, iopanoic acid, reference compound]
readout_value: 308

* * *

# assay: Biliary excretion and bile flow after i.v. TFA-IOP (100 umol/kg) or IOP (100 in text, 104 umol/kg in tables) in rats
# experimental_context: rat, bile, iv, 100 umol/kg
Counter-ions that a name gives are not always drawn.

compound: CCC(Cc1c(I)cc(I)c(NC(=O)C(F)(F)F)c1I)C(=O)O (centres unmarked) [TFA-IOP, N-trifluoroacetyl-iopanoic acid]
concentration at 10 min: 3010 µM
//
compound: CCC(Cc1c(I)cc(I)c(N)c1I)C(=O)O (centres unmarked) [IOP, iopanoic acid, reference compound]
concentration at 10 min: 1610 µM

* * *

# assay: Biliary excretion and bile flow after i.v. TFA-IOP (100 umol/kg) or IOP (100 in text, 104 umol/kg in tables) in rats
# experimental_context: rat, bile, iv, 100 umol/kg
Counter-ions that a name gives are not always drawn.

compound: CCC(Cc1c(I)cc(I)c(NC(=O)C(F)(F)F)c1I)C(=O)O (centres unmarked) [TFA-IOP, N-trifluoroacetyl-iopanoic acid]
concentration at 70 min: 5370 µM

compound: CCC(Cc1c(I)cc(I)c(N)c1I)C(=O)O (centres unmarked) [IOP, iopanoic acid, reference compound]
concentration at 70 min: 7530 µM

* * *

# assay: Biliary excretion and bile flow after i.v. TFA-IOP (100 umol/kg) or IOP (100 in text, 104 umol/kg in tables) in rats
# experimental_context: rat, bile, iv, 100 umol/kg
Counter-ions that a name gives are not always drawn.
parameter: concentration at 1.5 h (µM)

molecule: CCC(Cc1c(I)cc(I)c(NC(=O)C(F)(F)F)c1I)C(=O)O (centres unmarked) [TFA-IOP, N-trifluoroacetyl-iopanoic acid]
u: µM
readout_value: 4660
//
molecule: CCC(Cc1c(I)cc(I)c(N)c1I)C(=O)O (centres unmarked) [IOP, iopanoic acid, reference compound]
u: µM
readout_value: 9560

// data source = patent US5250283A
